assayed_system: Protein RecA (Mycobacterium tuberculosis, UniProt P9WHJ3)
method_summary: Fluorescence Cell-Free Homogeneous Dose Retest to Identify Inhibitors of RecA-Intein Splicing Activity. [Related pubchem assays (depositor defined):AID2097, AID2223, AID489010, AID492950]
Assay type: functional
The source made the active and inactive calls. Cut-off read from the data, not from the text of the source: actives have a measured EC50 and inactives only a lower limit.
quantity_kind: EC50

What value of measured EC50 is listed for O=C1/C(=C/c2ccc3c(c2)OCO3)CCC/C1=C\c1ccc2c(c1)OCO2 ?
> 380 µM (inactive)

Another: O=C(c1ccc2nc(Cc3cccc(Cl)c3)oc2c1)N1CCC(O)CC1
> 380 µM (inactive)

Further, for CC1=NN(c2ccc(C(=O)O)cc2)C(=O)/C1=C\c1ccc(OC(=O)c2cccs2)cc1 ?
1.9 µM (active)

Here is the next compound: CCCc1n[nH]c2c1C(c1ccsc1)C(C#N)=C(N)O2 (configuration not stated)
2.28 µM (active)

How about this compound: Cc1ccc(NC(=O)c2sc3ncnc(N4CCN(c5ccccn5)CC4)c3c2C)c(C)c1
> 380 µM (inactive)

Try this compound too: CCCc1n[nH]c2c1C(c1cc(OC)cc(OC)c1)C(C#N)=C(N)O2 (configuration not stated)
1.51 µM (active)

Input COc1ccc(N(C)C(=O)c2cc3c(s2)-c2c(C)cccc2OC3)c(OC)c1
133 µM (inconclusive)

Could you do the same for COC(=O)c1nc(-c2ccc3c(n2)C(=O)C(=N)C(OC)=C3O)c(N)c(-c2ccc(OC)c(OC)c2O)c1C , please?
0.342 µM (active)

Then Cc1[nH]n(-c2ccccc2)c(=O)c1C=C1C(=O)NC(=O)NC1=O ?
7.39 µM (active)

Repeat for the following compound: O=C(Cc1ccccc1)NC1(O)C(=O)c2ccccc2C1=O
8.67 µM (active)

And for Cc1nn(-c2ccc(Cl)cc2)c(O)c1C(c1cccc(O)c1)c1c(C)[nH]n(-c2ccc(Cl)cc2)c1=O (configuration not stated) ?
0.897 µM (active)

Follow-up item: OCCN=C(S)Nc1ccc2nsnc2c1
26 µM (active)

Also, Nc1cc2nn(-c3ccccc3)nc2cc1Cl please.
3.48 µM (active)

What do we get for O=C1C=C(NCCN2CCOCC2)C(=O)c2cnccc21 ?
0.536 µM (active)

What do you get for CC(C)(C)C1CCc2sc(C(=O)NNC(=O)CCl)cc2C1 (configuration not stated) ?
1.47 µM (active)

Query Cc1cc(C)c(S(=O)(=O)/N=C2\C=C(Nc3ccc(C(=O)O)cc3)C(=O)c3ccccc32)c(C)c1 next
0.0696 µM (active)

Now this one: Cc1ccc(S(=O)(=O)Oc2ccc(C(c3c(C)n[nH]c3O)c3c(C)n[nH]c3O)cc2)cc1
46.2 µM (active)

Now consider O=S(=O)(c1ccccc1)c1ncc(C(F)(F)F)cc1Cl and answer again.
3.16 µM (active)

Here is the next compound: N#CC1=C(N)N(c2ccccc2)C(c2cccc([N+](=O)[O-])c2)C1(C#N)C#N (configuration not stated)
12.8 µM (active)

Another compound: CC(=O)Oc1ccc(N(C(C)=O)S(=O)(=O)c2ccc3ccccc3c2)cc1Br
17.3 µM (active)

Similarly, COc1ccc(-c2[nH]nc3c2C(c2ccoc2)C(C#N)=C(N)O3)cc1 (configuration not stated) ?
0.548 µM (active)

Again, but for O=C(COC(=O)C1CC(=O)N(Cc2ccco2)C1)c1ccc(OC(=O)c2ccco2)cc1 (configuration not stated)
18 µM (active)
